- EXPERIMENTAL_SYSTEM: UniProt:P49841
- ASSAY: biochemical
Some compounds, each annotated with its measured IC50.

COMPOUND	IC50
COc1ccccc1[C@H]1C2=C(CC(C)(C)CC2=O)Nc2n[nH]c(C)c21	1000 to 5000 nM
CC1(C)CC(=O)C2=C(C1)Nc1n[nH]c(C(F)(F)F)c1C2c1ccc(F)cc1C(F)(F)F (stereo not shown)	101 to 1000 nM
Cc1[nH]nc2c1C(c1ccccc1)C1=C(CC3(CCCC3)CC1=O)N2 (stereo not shown)	101 to 1000 nM
COc1ccccc1C1C2=C(CCCC2=O)Nc2n[nH]c(C)c21 (stereo not shown)	101 to 1000 nM
Cc1[nH]nc2c1C(c1ccccc1)C1=C(CC3(CCC3)CC1=O)N2 (stereo not shown)	101 to 1000 nM
Cc1[nH]nc2c1C(C)C1=C(CC(C)(C)CC1=O)N2 (stereo not shown)	101 to 1000 nM
Cc1cccc(C2C3=C(CC(C)(C)CC3=O)Nc3n[nH]c(C)c32)c1 (stereo not shown)	101 to 1000 nM
CC1(C)CC(=O)C2=C(C1)Nc1n[nH]c(Br)c1C2c1ccccc1 (stereo not shown)	< 100 nM
CC1(C)CC(=O)C2=C(C1)Nc1n[nH]c(Cc3ccccc3)c1[C@@]2(C)c1ccccc1 (stereo in doubt)	> 33000 nM
COc1ccccc1C1C2=C(CC(C)(C)CC2=O)Nc2n[nH]c(C(C)(C)C)c21 (stereo not shown)	101 to 1000 nM

---

- EXPERIMENTAL_SYSTEM: GSK3α (Homo sapiens, UniProt P49840)
- Sequence (P49840 whole entry): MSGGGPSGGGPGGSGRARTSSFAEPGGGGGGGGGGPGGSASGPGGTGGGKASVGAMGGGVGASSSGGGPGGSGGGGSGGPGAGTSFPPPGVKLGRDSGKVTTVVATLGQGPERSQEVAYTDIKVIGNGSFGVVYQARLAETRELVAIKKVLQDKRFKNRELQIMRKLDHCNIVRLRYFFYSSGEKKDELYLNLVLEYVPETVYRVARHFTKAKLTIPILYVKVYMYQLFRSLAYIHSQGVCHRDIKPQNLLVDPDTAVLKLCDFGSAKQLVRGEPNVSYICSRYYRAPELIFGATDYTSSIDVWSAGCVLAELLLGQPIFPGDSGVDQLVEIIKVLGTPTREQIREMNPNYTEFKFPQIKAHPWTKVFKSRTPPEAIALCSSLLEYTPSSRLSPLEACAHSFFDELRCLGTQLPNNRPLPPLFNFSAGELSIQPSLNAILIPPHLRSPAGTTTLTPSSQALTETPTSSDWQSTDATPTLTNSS
- ASSAY: biochemical
pIC50: −log10 of the molar value.

COMPOUND	EXPERIMENTAL_SYSTEM	pIC50
COc1ccccc1C1C2=C(CC(C)(C)CC2=O)Nc2n[nH]c(-c3ccccc3)c21 (stereo not drawn)	GSK3α (Homo sapiens, UniProt P49840)	6.00 to 7.00
CCC1(CC)CC(=O)C2=C(C1)Nc1n[nH]c(C)c1C2c1ccccc1 (stereo not drawn)	GSK3α (Homo sapiens, UniProt P49840)	6.00 to 7.00
CC1(C)CC(=O)C2=C(C1)Nc1n[nH]c(C3CC(F)(F)C3)c1C21CCOc2ccccc21 (racemic)	GSK3α (Homo sapiens, UniProt P49840)	6.06

---

- EXPERIMENTAL_SYSTEM: GSK3α (Homo sapiens, UniProt P49840)
- DETAILS: Caliper assay; GSK3α over GSK3β
Here the recorded GSK3α fold selectivity is given for each entry.
PARAMETER_MEASURED: GSK3α fold selectivity (fold)

COMPOUND	EXPERIMENTAL_SYSTEM	PARAMETER_MEASURED	READOUT_RELATION	NUMERIC_VALUE
CCC1(c2cccc(Cl)c2)C2=C(CC(C)(C)CC2=O)Nc2n[nH]cc21 (racemic) [Compound 218]	GSK3α (Homo sapiens, UniProt P49840)	GSK3α fold selectivity	=	5.8
CC[C@@]1(c2ccccc2)C2=C(CC3(COC3)CC2=O)Nc2n[nH]cc21 (stereo in doubt) [Compound 237]	GSK3α (Homo sapiens, UniProt P49840)	GSK3α fold selectivity	=	4.2
CC[C@]1(c2ccccc2)C2=C(CC(C)(C)CC2=O)Nc2n[nH]c(F)c21 (stereo in doubt) [Compound 240]	GSK3α (Homo sapiens, UniProt P49840)	GSK3α fold selectivity	>	2.7

---

- EXPERIMENTAL_SYSTEM: GSK3β (Homo sapiens, UniProt P49841)
- Sequence (P49841 whole entry): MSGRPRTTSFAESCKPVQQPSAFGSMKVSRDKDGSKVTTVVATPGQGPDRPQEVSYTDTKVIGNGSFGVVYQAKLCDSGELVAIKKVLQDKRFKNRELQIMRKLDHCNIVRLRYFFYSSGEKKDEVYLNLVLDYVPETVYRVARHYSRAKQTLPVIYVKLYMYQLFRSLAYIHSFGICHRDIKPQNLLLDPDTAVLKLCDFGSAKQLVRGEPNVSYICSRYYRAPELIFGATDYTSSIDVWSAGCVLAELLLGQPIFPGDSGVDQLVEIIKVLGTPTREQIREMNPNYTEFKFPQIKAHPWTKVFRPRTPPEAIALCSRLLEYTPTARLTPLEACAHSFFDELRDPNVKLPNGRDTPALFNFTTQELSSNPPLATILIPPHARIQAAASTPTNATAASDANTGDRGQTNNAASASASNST
- ASSAY: biochemical
PARAMETER_MEASURED: log10 of IC50 (log10 of the value in nM)

MOLECULE	log10 of IC50
COc1ccccc1[C@H]1C2=C(CC(C)(C)CC2=O)Nc2n[nH]c(CC(C)(C)C)c21 (stereo in doubt)	1.15
CC[C@@]1(c2ccccc2)C2=C(CC(C)(C)CC2=O)Nc2n[nH]c(F)c21 (stereo in doubt)	3.16
CC[C@]1(c2cccc(C(C)(C)C)c2)C2=C(CC(C)(C)CC2=O)Nc2n[nH]cc21 (stereo in doubt)	3.92
CC1(C)CC(=O)C2=C(C1)Nc1n[nH]c(C3CCCCC3)c1[C@@]2(C)c1ccccc1 (stereo in doubt)	3.70
CC1(C)CC(=O)C2=C(C1)Nc1n[nH]c(C3CC(F)(F)C3)c1[C@@]21CCOc2ccccc21	1.26
CC1(C)CC(=O)C2=C(C1)Nc1n[nH]cc1[C@@]2(C)c1cccc(C(F)(F)F)c1 (stereo in doubt)	3.16
CC1(C)CC(=O)C2=C(C1)Nc1n[nH]cc1[C@@]2(C)c1cccc(Cl)c1 (stereo in doubt)	4.52
Cc1ccccc1[C@H]1C2=C(CC(C)(C)CC2=O)Nc2n[nH]c(C(C)C)c21	1.56

---

- EXPERIMENTAL_SYSTEM: UniProtKB P49840
- ASSAY: biochemical
pIC50: −log10 of the molar value.
PARAMETER_MEASURED: pIC50

COMPOUND	RESULT
Cc1[nH]nc2c1C(C1CC1)C1=C(CC(C)(C)CC1=O)N2 (stereo not shown) [Compound 43]	5.30 to 6.00
Cc1cccc(C2C3=C(CC(C)(C)CC3=O)Nc3n[nH]c(C)c32)c1 (stereo not shown) [Compound 18]	6.00 to 7.00
CC1(C)CC(=O)C2=C(C1)Nc1n[nH]c(C(F)(F)F)c1C2c1ccc(F)cc1C(F)(F)F (stereo not shown) [Compound 65]	6.00 to 7.00
CC1(C)CC(=O)C2=C(C1)Nc1n[nH]c(C(F)(F)F)c1C2c1cnccc1C(F)(F)F (stereo not shown) [Compound 66]	5.30 to 6.00
COc1ccccc1[C@H]1C2=C(CC(C)(C)CC2=O)Nc2n[nH]c(C)c21 [Compound 21]	6.00 to 7.00
CC1(C)CC(=O)C2=C(C1)Nc1n[nH]c(C(F)(F)F)c1C2c1cc(F)ccc1OC(F)(F)F (stereo not shown) [Compound 61]	6.00 to 7.00
CC1(C)CC(=O)C2=C(C1)Nc1n[nH]c(Cc3ccccc3)c1[C@@]2(C)c1ccccc1 (stereo in doubt) [Compound 328]	< 4.48

---

Quick reference: pIC50 of the listed items.
- EXPERIMENTAL_SYSTEM: GSK3α (Homo sapiens, UniProt P49840)
- ASSAY: biochemical
pIC50: −log10 of the molar value.

COMPOUND	EXPERIMENTAL_SYSTEM	pIC50
Cc1[nH]nc2c1C(c1ccccc1)C1=C(CC3(CCC3)CC1=O)N2 (stereo not drawn)	GSK3α (Homo sapiens, UniProt P49840)	6.00 to 7.00
COc1ccccc1C1C2=C(CC3(CCCCC3)CC2=O)Nc2n[nH]c(C)c21 (stereo not drawn)	GSK3α (Homo sapiens, UniProt P49840)	6.00 to 7.00
Cc1[nH]nc2c1C(C)C1=C(CC(C)(C)CC1=O)N2 (stereo not drawn)	GSK3α (Homo sapiens, UniProt P49840)	6.00 to 7.00

---

- EXPERIMENTAL_SYSTEM: GSK3β (Homo sapiens)
- ASSAY: biochemical
pIC50: −log10 of the molar value.
Below, each entry is listed with its recorded pIC50.

MOLECULE	pIC50
CC[C@]1(c2cccc(F)c2)C2=C(CC(C)(C)CC2=O)Nc2n[nH]cc21 (stereo in doubt)	< 4.48
CC1(C)CC(=O)C2=C(C1)Nc1n[nH]c(C(F)(F)F)c1C2c1cc(F)ccc1OC(F)(F)F (stereo not drawn)	6.00 to 7.00
Cc1[nH]nc2c1[C@@](C)(c1ccccc1)C1=C(CC(C)(C)CC1=O)N2	4.52 to 5.30
CCC1(CC)CC(=O)C2=C(C1)Nc1n[nH]c(C)c1C2c1ccccc1 (stereo not drawn)	6.00 to 7.00
CC1(C)CC(=O)C2=C(C1)Nc1n[nH]c(C(F)(F)F)c1C2c1cnccc1C(F)(F)F (stereo not drawn)	5.30 to 6.00
CCC[C@]1(c2ccccc2)C2=C(CC(C)(C)CC2=O)Nc2n[nH]cc21 (stereo in doubt)	< 4.48
CC[C@]1(c2ccccc2)C2=C(CC(C)(C)CC2=O)Nc2n[nH]c(F)c21 (stereo in doubt)	< 4.48
Cc1ccccc1C1C2=C(CC(C)(C)CC2=O)Nc2n[nH]c(C)c21 (stereo not drawn)	6.00 to 7.00
COc1ccccc1C1C2=C(CC3(CCCCC3)CC2=O)Nc2n[nH]c(C)c21 (stereo not drawn)	6.00 to 7.00
